Kindly state normalized RNA/DNA level with ligand (log10) for each of the entries shown.
B1: library; a variant is named by its letters at N, in order (parent)
chain: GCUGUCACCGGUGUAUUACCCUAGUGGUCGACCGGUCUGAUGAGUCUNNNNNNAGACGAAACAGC

# Variants of: B1
# TEST_METHOD_NOTES: normalized RNA/DNA level with ligand (relative to sTRSVctl = 100) (log10 (% of sTRSVctl)); ligand: hypoxanthine (xanthine aptamer); higher = less ribozyme self-cleavage, higher mRNA level
# TEST_SETTINGS: ligand concentration (+) RNA-Seq: 5 mM, HEK293T, reporter: mCherry (pCS4076), ligand present: yes

For orientation, consider the following solved cases.
>>> result("CCGUCC")
1.98
>>> result("GCCCCU")
1.93
>>> result("UGGGCG")
1.96
>>> result("UAUCUU")
1.97
>>> result("GGCCUA")
1.98
>>> result("UAUGAG")
1.86
>>> result("CGCCUA")
1.98
>>> result("GAUGAC")
1.92
>>> result("CCGGUC")
1.96
>>> result("UCACCG")
1.94

Below are 3 variants. Give each one its normalized RNA/DNA level with ligand (log10).
1. CUGAAA
2. AGGUAU
3. AAUCAG

1. 1.93
2. 1.87
3. 1.84
